Cited source for all entries: the nanobody polyreactivity screen of Harvey et al. (2022)

- assay-explanation: yeast display, Sf9 membrane polyspecificity reagent, FACS + sequencing; frameworks hold sequencing errors
observable: polyreactivity (PSR sort gate)

Field: example entries. Status: answers known.
Given the sequence `QVQLVESGGGLVQAGGSLRLSCAASGRTFHGYAMGWYRQAPGKERELVARINWSDGRTYYADSVKGRFTISRDNAKNTVFLQMNSLKPEDTAVYYCAADKTVSYAPAWYYYWGQGTQVTVSS` , write its reported polyreactivity (PSR sort gate). low polyreactivity

Given the sequence `QVQLVESGGGLVQAGGSLRLSCAASGFTFVINDMGWYRQAPGKERELVADITSGGDTYYADSVKGRFTISRDNAKNTVYLQMNSLKAEDTAVYYCAADIYPDWIYLLYGYWGQGTQVTVSS` , write its reported polyreactivity (PSR sort gate). low polyreactivity

Given the sequence `QVQLVESAGGLVQAGGSLRLSCAASGRTFRTYAMGWYRPAPVKERELVAAITSGGNTYYADSVKGRFTISRDNAKNTVYLQMNSLKPEDTAVYYCAAVQYFKVYYWGQGTQVTVSS` , write its reported polyreactivity (PSR sort gate). high polyreactivity

Given the sequence `QVQLVESGGGLVQAGGSLRLSCAASGSTFQSYAMGWYRQAPGKERELVAGITSGDSTNYADSVKGRFTISRDNAKNTVYLQMNSLKPEDTAVYYCNAVTQARYYYWGQGTQVTVSS` , write its reported polyreactivity (PSR sort gate). low polyreactivity

# context switch: different sequence, same polyreactivity (PSR sort gate)
Given the sequence `QVQLVESGGGLVQAGGSLRLSCAAYGFTFKYYVMGWYRQAPGKERELVASISKRGGSTRYADSVKGRFTISRDNAKNTVYLQMNSLKPEDTAVYYCAAAFVRPPPYVGYSRFYYWGQGTQVTVSS` , write its reported polyreactivity (PSR sort gate). high polyreactivity
